Test system: HEK-293T
test_protocol: Multiplex assay against HEK293T
Format: toxicity, cell-based
experimental_parameters: human, 24 h, 10 µM, compound concentration 10 uM, replicate 1
property_label: Population Tubulin-Different-Phenotype (%)
Provide the reading as a plain figure in %.

Problem: Look up Population Tubulin-Different-Phenotype (%): O=C(O)CCC/C=C\CC1C(O)CC(O)C1/C=C/C(O)COc1cccc(Cl)c1 (configuration not stated)
Result: 35

Problem: Check "CC(C)(C)c1ccc(CSc2cnn(C(C)(C)C)c(=O)c2Cl)cc1" too.
Result: 52

Problem: Check "COCCn1c(C)c(C)s/c1=N\C(=O)C1C(C)(C)C1(C)C" too.
Result: 36

Problem: Check "COc1cc(OC2CCN(C(C)=O)CC2)ccc1C(=O)N1CCC(N2C(=O)OCc3ccccc32)CC1" too.
Result: 36

Problem: Check "Cc1cc(=O)n(C)c2cc(N3C(=O)CC[C@H](NS(=O)(=O)CC(C)C)[C@H]3c3ccc(Cl)cc3)ccc12" too.
Result: 67

Problem: Check "CN1CCN(c2ccc(Nc3c4ccccc4nc4ccccc34)cc2)CC1.Cl.Cl.O" too.
Result: 92

Problem: Check CCC(=O)OCC(=O)[C@@]1(OC(=O)CC)[C@@H](C)C[C@H]2[C@@H]3CCC4=CC(=O)C=C[C@]4(C)[C@@]3(Cl)[C@@H](O)C[C@@]21C [BECLOMETHASONE DIPROPIONATE] too.
Result: 73

Problem: Check CN(C)C/C=C/C(=O)Nc1ccc(C(=O)N2CCCC(Nc3ncc(Cl)c(-c4c[nH]c5ccccc45)n3)C2)cc1 (configuration not stated) too.
Result: 52

Problem: Check "CCCCC[C@H](O)/C=C/[C@H]1[C@H](O)CC(=O)[C@@H]1CCCCCCC(=O)O" too.
Result: 23

Problem: Check "Nc1nc(-c2ccco2)c2cnn(Cc3ccccc3F)c2n1" too.
Result: 31

Problem: Check "COc1cc(C(=O)N2CC[C@@H](O)[C@@H](N)C2)cc2nc(-c3cc4ccccc4n3CC3CC3)n(C)c12.Cl" too.
Result: 78

Problem: Check "CC(C)(O)C(=O)N1CCN(c2ccc(C(F)(F)F)c(C3=C(c4c[nH]c5ccccc45)C(=O)NC3=O)c2)CC1" too.
Result: 43

Problem: Check O=C(NCCNCC(O)COc1ccc(O)cc1)N1CCOCC1.O=C(NCCNCC(O)COc1ccc(O)cc1)N1CCOCC1.O=C(O)/C=C/C(=O)O (configuration not stated) [XAMOTEROL FUMARATE] too.
Result: 12

Problem: Check "O=c1ccc2ccc(OCCCCN3CCN(c4cccc5sccc45)CC3)cc2[nH]1" too.
Result: 66

Problem: Check "CC(C)C[C@H](CO)Nc1nc(S[C@@H](C)c2ccccc2)nc2nc(N)sc12" too.
Result: 39

Problem: Check "C[C@H](NC(=O)CNC(=O)c1cccc(Cl)c1)c1ccccc1" too.
Result: 25

Problem: Check Cc1ccc(OCC(O)C(C)NC(C)C)c2c1CCC2.Cl (configuration not stated) too.
Result: 47
